Reported protein stability index is given for each of the following sequences.
- assay-info: protein stability index of a GFP-peptide fusion (yeast GPS) (PSI 1-4); higher = more stable; sorted into four equal gates, so the index is relative within each strain
- measurement-context: pdr5∆

sequence	protein stability index
MNNGSGRYLLTPPDDLH [SRB8]	2
DNFSPHQNVIIGSNGSG [SMC3]	2.89
TIHRSFTICLNDRNPRL [CSN12]	2.76
EEVNRCYLRWQHLRNEH [SNF2]	3
LTSGLLYSYLIKENFFE [YJL039C/NUP192]	1.74
KKSVLKQVQDFEENDHP [COR1]	2.81
EEASQLIEYMENDAKKS [NUT1]	3.2
GAIAYNQFKRIDTLLYL [RET1]	1.42
KIESEDDYILSGESVMD [SRB4]	3.5
KLSIAEERDRRRAQQGL [RPS4A]	2.19
GTWSAKEAVFKSLGVKS [FAS2]	3.34
WSFEEVEVKDASLVDYV [RPS5]	1.14
GVHTGQFIYAGKKASLN [RPL2A]	3.51
TGKVSEFISIYSNSHQM [RET1]	2.44
PEESKPINLQNGEEDEV [YLR335W/NUP2]	2.92
QIQLAESELSLLEETQA [SMC4]	3.25
SSPSHIELVVTEKEEAV [RPL17A]	2.74
NMMEHWDYLQLTVAMYI [RPO31]	2.2
LFSPEEVRAISVAKIRF [RPO21]	2.31
SDPLTVFSESCSNESFA [SNU114]	2.96
SSIDKKSSILTVLQKNS [YML103C/NUP188]	2.42
IEKVDRENMICKIDFQK [RRI2]	3.03
DEVITEGQADIDMESDV [POP7]	3.17
LLSLNSVRSLQKRIENG [SRP68]	1.65
PNERKAKQAKIRAGEFD [SNF2]	3.66
LPLPPSVEWMKVSPSMC [SIN4]	1.71
KKNPNWLEEYHPKLIKN [FAS1]	1.94
SNLQRAQNVPMNIIQQQ [GAL11]	2.55
QLKNGLLEKYNTNELKE [MTR3]	2.69
LPAYSGEIGDFFSSDWR [POP1]	3.32

###

- assay-info: protein stability index of a GFP-peptide fusion (yeast GPS) (PSI 1-4); higher = more stable; sorted into four equal gates, so the index is relative within each strain
- measurement-context: pdr5∆

sequence	protein stability index
ESQYPIVTEQPSAEIRE [SWP82]	2.73
FTSAPIEVTIGIDQYSF [AAR2]	1.93
MTIDLEPIEESSQNNSE [IRR1]	3.14
IHSMNENPTPEKGNAKM [SIR3]	2.67
LGFEVKDQALIGTINSI [SIR2]	2.48
CTSLMDIIVAIKIFELK [IRR1]	1.41
LLQLIQSQPQEKFSEKM [ECM29]	2.02
TWSLILNECLKTIQINN [YML031W/NDC1]	1.62
VKTSPDAKKCIAACTGV [FAS1]	3.02
ADLMALENATWTMRIEG [SNF12]	3.05
TVPEYLKTADNRDRSFQ [PGD1]	3.07
FTMMTSEPLTLKVLSEH [PCI8]	1.96
LTTAREHHSSVKYASPN [FAS2]	3.11
TGGQTIDNGTGRTGNGN [MED6]	2.82
LNYGNICEPKETLSIFT [YJL039C/NUP192]	1.75
DTSAEKDQIQAGKWFDP [SIR4]	3.57
LRNKLIESNKLAGVLYE [RRP6]	3.04
YVQVRQPIFVAHTAGRY [RPS5]	1.84
SKVSKQQAKGAFQKVAA [RPL24B]	2.97
DMFEMSDEEENNNNKSI [SSN2]	3.19
GAKYVIRDSGDRIDLRY [RPO21]	3.31
GVTDLFRHFIGIKAKHD [ISW2]	1.43
ALASIQTFNFDSFENYF [RPN12]	2.77
TRKGYIPSSKYAYMMNS [YLR018C/POM34]	2.73
ADGLLQVLVCTATLAWG [BRR2]	1.77
ENISLAEFILKNRSTIF [BRR2]	2.13
VPQTEEARAEAINLMGV [RPO31]	2.97
MSACVGQQSVEGKRIAF [RPO21]	1.97
NRLLPNLPEEERKQIHE [GRR1]	1.41
TRFKAVVVVGDSNGHVG [RPS2]	1.96

###

Reported protein stability index is given for each of the following sequences.
- assay-info: protein stability index of a GFP-peptide fusion (yeast GPS) (PSI 1-4); higher = more stable; sorted into four equal gates, so the index is relative within each strain
- measurement-context: doa10∆

sequence	protein stability index
AGTTDNSFIKANLPWLG [RPN2]	1.48
SMRVKPSASLKLHHDLK [YMR129W/POM152]	3.14
SIGYETELKKITDKTIK [IRR1]	3.06
KDEEETEYFENKQSVSN [DSN1]	3.46
VVFTRLVQRCWQWGNDR [CSN12]	1.42
KNVLANSIWGSSLRKNA [ITC1]	1.49
KPAFSFGATTNDDKKTE [YJL041W/NSP1]	2.92
RAQHVKKLATRPKCGDC [RPL34A]	3.06
LEFRWLTSSKSVIVSQF [SIN4]	1.73
DTQTFSVLLQQLLTPGS [YGL172W/NUP49]	1.31
TNTHPNFLSKIRNINVQ [SNF2]	1.44
YTFKTSMRVKPSASLKL [YMR129W/POM152]	2.42
RRRSSTNKSKRPSITEA [MED1]	3.02
ANMATVPSTTNVNMTVN [MED6]	2.92
VTWRTFTGDFLRRVEER [FAS1]	2.79
PQDYVLERVKRIMEKSV [YML031W/NDC1]	2.6
PAGQATQKRTHVLKKNP [RPL4A]	2.95
PQYNMNMGMNNMNNGGK [PGD1]	3.42
IDFFKTDDSFEDKVFAS [BRN1]	3.02
KDVKAWAGKRLWDQDIA [COR1]	3.52
LLPTIKRTICKKCHRLL [RPR2]	2.32
YISKIGEKIDSNKPIFL [SWI1]	3.02
LKKFRESLVHSALCILK [BRR2]	3.21
KSKILRKVVFPFQLDVA [UBP6]	2.23
RDVYVFDKVEVQVRSVM [DIS3]	2.92
FLSPYISTHLKTICNLL [IRR1]	1.57
YRPLTPSSEVYSPIEKE [RRP6]	2.74
ALRGMFKDRFKDEPVQN [FAS2]	3.56
DLIRSESMLHLSIWIKN [IRR1]	1.62
ASINTSATVKTSDLLGS [ECM29]	3.24
IGGSLARIALRHLEKEG [RPS25A]	2.52
TDQLIQNIETRQLANLI [NUT1]	3.15
SRMTVGKMIELISGKAG [RET1]	3.14
YPSKTLKTDGVRAVSIT [FAS2]	2.12
ECGTGTTIHTFNRKENP [RPN14]	2.11
HLRYQPDGVVVHRDDPA [SNF6]	2.91
LLHSKPSLLLQKDQDGR [NAS6]	3.22
RNQEKKMEKKKSSSLSL [SNM1]	3.53
VRTHMRNMIIVPEMIGS [RPS15]	1.25
NGLLNEISRLKTSLSIK [SMC2]	3.1
LVETCLNDLVESSFIEI [BRR2]	3.03
DQKPIEHIKEGSEIAIS [SWI3]	2.93
IDEVFSWYLNTFDGIRM [GRR1]	2.42
MSEEQDPLLAGLGETSG [RPT4]	2.91
NVRDDMKPSDNISTNTN [SSN2]	3.1
GFSPTSPTYSPTSPAYS [RPO21]	2.81
TQVRVEFLEDTSRTIVR [RPS28A]	3.37
EQVKDDGTSTEKTFLHL [RPN8]	3.28
SLNLQYVNYEISTAKAW [YML103C/NUP188]	2.6
SLYQVDPSGSYFPWKAT [PRE8]	2.87
KQEIMMSDLFTFDWFIK [ISW2]	2.85
GNNKDLKNTMQYLTNFS [RPB4]	3.16
IVKVFHGAFMDIIWLQR [RRP6]	2.1
SIGKNPFNKPNIETGEN [SWI3]	3.04
AISTDKINPFGFEQVKI [RRI2]	2.75
ALSQSSLLKTKLKQQSS [RRI1]	2.13
SLDNKTLDDLVTKWTNQ [YJL041W/NSP1]	3.08
DKINKYSLIRETNGYDP [SNF5]	1.51
LICSIGLHSSEYKLRSL [ECM29]	2.03
AVTEREVLVTPGLEFLD [MCD1]	2.85

###

- assay-info: protein stability index of a GFP-peptide fusion (yeast GPS) (PSI 1-4); higher = more stable; sorted into four equal gates, so the index is relative within each strain
- measurement-context: san1∆

sequence	protein stability index
ALEFVSLLLSSVKESTG [SRB4]	1.4
WCAGAGTAADTEAVTQL [PUP1]	2.78
PQQQQQHLQFNGSSDAS [YDL088C/ASM4]	2.04
TLISENWWHSEFEIPVS [BRR2]	1.8
GRRKTWKRQNTLSLWRY [RPL15A]	2.57
GTFKSTLDREYITLKAT [QCR2]	1.51
IMERIKSSLSLRDHALS [ITC1]	2.7
ARTATVSKKWAAAAVCE [RPL14A]	3.58
HISKIIGLDTQQVEGKL [RPN6]	2.9
LIQKLQNSANNNSDDED [IRR1]	3.26
IAARRTGLLRGSQKTQD [RPL2A]	2.66
INNLPPEKEASSATIVL [YCG1]	2.29
YRPLTPSSEVYSPIEKE [RRP6]	2.69
LRLSNFFTIDHFIQKLH [SIR2]	2.23
IINKVLDYQETYVEELF [YJL039C/NUP192]	2.76

Data origin, for the record: the supplement of paper PMC9732359
